- Experimental protocol: Half life at pH 7.4
- Assay type: ADME
- Condition label: buffer
# if value of half-life reaches 40 h, tag class 1; if it stays below, tag class 0

Given COc1ccnc(C[S+]([O-])c2nc3cc(OC(F)F)ccc3[nH]2)c1C (stereo unspecified) , state whether its half-life is at least 40 h. class 0

Given COc1ccnc(C[S+]([O-])c2nc3cc(F)c(OC(F)F)cc3[nH]2)c1C (stereo unspecified) , state whether its half-life is at least 40 h. class 0

Given COc1cc(C[S+]([O-])c2nc3cc(OC(F)(F)C(F)F)ccc3[nH]2)ncc1C (stereo unspecified) , state whether its half-life is at least 40 h. class 0

***
Given COc1ccnc(C[S+]([O-])c2nc3cc(OC(F)(F)C(F)F)ccc3[nH]2)c1 (stereo unspecified) , state whether its half-life is at least 40 h. class 1

Given COc1cnc(C[S+]([O-])c2nc3cc(OC(F)(F)C(F)F)ccc3[nH]2)c(C)c1OC (stereo unspecified) , state whether its half-life is at least 40 h. class 1

Given COc1cc2[nH]c([S+]([O-])Cc3nccc(OC)c3OC)nc2cc1OC(F)F (stereo unspecified) , state whether its half-life is at least 40 h. class 1

Given COc1ccnc(C[S+]([O-])c2nc3cc(OCC(F)(F)F)ccc3[nH]2)c1C (stereo unspecified) , state whether its half-life is at least 40 h. class 0

Given COc1c(C)cnc(C[S+]([O-])c2nc3cc(OC(F)F)ccc3[nH]2)c1C (stereo unspecified) , state whether its half-life is at least 40 h. class 0

Given COc1cnc(C[S+]([O-])c2nc3cc(OC(F)F)ccc3[nH]2)cc1OC (stereo unspecified) , state whether its half-life is at least 40 h. class 1

Given COc1ccnc(C[S+]([O-])c2nc3cc(F)c(OC(F)F)cc3[nH]2)c1OC (stereo unspecified) , state whether its half-life is at least 40 h. class 1

Data credit: ChEMBL document CHEMBL1125404
